test system: OVCAR-4 ovarian; test: NCI tumour cell line growth inhibition, 48 h
Where a SMILES comes first, the peptide text is derived from it. [ ]: non-standard residue; d: D form. The star is where a group is joined. hSer = N[CH](CCO)C(=O)O; Boc = CC(C)(C)OC(=O)*
observation.type: TGI

# compound, observation.type, result
records = [
    ("CCCOC(=O)N[C@H]1CCc2c(Br)c(OC)c(OC)c(OC)c2-c2ccc(SC)c(=O)cc21", "TGI", "> 100 µM"),
    ("CN(C)c1c(Cl)c(=O)oc2c1ccc1nc(-c3ccccc3)sc12", "TGI", "> 100 µM"),
    ("CN1CC(c2ccccc2)=Cc2c1ccc(N)c2N=N", "TGI", "> 100 µM"),
    ("O=C(NNc1nc2cc(F)ccc2n2c(CN3CCOCC3)ccc12)c1ccccc1", "TGI", "1.39 µM"),
    ("COCCC(NC(=O)C(CC(C)C)NC(=O)OC(C)(C)C)C(N)=O (stereo not drawn) (Boc-Leu-[hSer](Me)-NH2; configuration not given here)", "TGI", "> 100 µM"),
    ("c1ccc2[nH]c(-c3nc4ccccc4o3)nc2c1", "TGI", "> 100 µM"),
    ("C1=C2SSC3=CC=C(SSc4ccc(s4)SSC4=CC=C(SSC(=C1)S2)S4)S3", "TGI", "> 100 µM"),
    ("CC(C)CN1CN(c2ccccc2)C2(CCN(CC(C)(c3ccc(F)cc3)C3OCCO3)CC2)C1=O (stereo not given)", "TGI", "29.7 µM"),
    ("Cc1cc(Br)c(N2C3=C(CC4=C2CCCC4=O)C(=O)CCC3)c(Br)c1", "TGI", "> 100 µM"),
    ("O=C(CC12CC3CC(CC(C3)C1)C2)NCCOCCOCCNC(=O)c1cc2c(o1)C(=O)c1ccccc1C2=O", "TGI", "2.08 µM"),
    ("CCCCCCCCCCCCCCCC[N+](C)(C)Cc1ccc(C[N+](C)(C)CCCCCCCCCCCCCCCC)cc1", "TGI", "> 100 µM"),
    ("COC(=O)Cc1c([C@@H]2Nc3ccccc3[C@H]2CC(=O)OC)[nH]c2ccccc12", "TGI", "> 100 µM"),
    ("COC(=O)OCC1OC(N2C(=O)NC(=O)C(I)C2N=[N+]=[N-])CC1OC(=O)OC (stereo not given)", "TGI", "> 100 µM"),
    ("O=C1Nc2ccc(Cl)cc2/C1=C\\c1c(-c2ccc(F)cc2)nc2ccccn12", "TGI", "7.23 µM"),
    ("O=S(=O)(c1cccc(C(F)(F)F)c1)N1c2ccccc2-n2cccc2C1c1cccnc1 (stereo not given)", "TGI", "> 48.4 µM"),
    ("O=c1/c(=C/c2cccc3ccccc23)sc2nc3ccccc3n12", "TGI", "> 100 µM"),
    ("Cc1nc2sc(C(=O)Nc3cccc4ccccc34)c(N)c2cc1C(C)O (stereo not given)", "TGI", "> 50 µM"),
    ("CCOC(=O)C1(Cc2ccc(C)cc2)Cc2ccc(C)cc2C1=O (stereo not given)", "TGI", "> 100 µM"),
    ("Cc1ccc(OP2(=O)Oc3ccc4ccccc4c3CN2c2ccc(Cl)cc2)cc1C (stereo not given)", "TGI", "> 100 µM"),
    ("COc1ccc(-c2cc3cccc(OC)c3c(=O)o2)cc1OC", "TGI", "> 100 µM"),
]
